Measurement Label: log10(intrinsic clearance, rat liver microsomes) (log10 of the value in mL/min/kg)
Note the log scale: values are log10 of intrinsic clearance, rat liver microsomes expressed in mL/min/kg.

Use the examples below as a reference point.
>>> df
                               entry_smiles  reported
0  CCN(C(=O)N1CCC(CC(=O)N2CCN(C)CC2)CC1)C(C)C      1.74
1                Cc1cc(CSCc2ccc(C#N)cc2)no1      3.00
2         Cc1cc(F)ccc1C(=O)NCc1ccc(O)c(O)c1      1.92

query: Which log10(intrinsic clearance, rat liver microsomes) reading was recorded for the compound `Cc1ncsc1-c1nc(CNc2cc(F)cc(F)c2)no1` ?
result: 2.82

query: Form field: reported log10(intrinsic clearance, rat liver microsomes) of `CCN(CC)Cc1cccc(/C=C/c2nc3ccc(F)cc3c(=O)n2-c2ccccc2Cl)n1`
result: 2.71

query: Name the reported log10(intrinsic clearance, rat liver microsomes) value associated with the compound `COc1cc2nc(-c3ccc(N4CCN(C)CC4)cc3)nc(NCCN3CCOCC3)c2cc1OC`
result: 1.96

query: Item `Cn1ccnc1CNc1cc(Br)ccc1-n1cccn1` has what recorded log10(intrinsic clearance, rat liver microsomes)?
result: 2.46

query: Fill in: log10(intrinsic clearance, rat liver microsomes) of `Cn1ncc2c(NOCc3ccccc3)ncnc21` is ___
result: 1.70

query: I am curious: what log10(intrinsic clearance, rat liver microsomes) value has been reported for `C[C@]12C=CC(=O)C=C1CC[C@@H]1[C@@H]2[C@@H](O)C[C@@]2(C)[C@H]1CC[C@]2(O)C(=O)CO` ?
result: 1.80

query: // lookup log10(intrinsic clearance, rat liver microsomes) for `COc1cccc(NC(=O)[C@H]2CCCN(S(=O)(=O)c3ccc(C)cc3)C2)c1`
result: 3.45

query: Recorded log10(intrinsic clearance, rat liver microsomes) for `CC(C)(C)c1ccc(C2=NC3(CCNCC3)NC2=O)cc1` , please?
result: 1.78

###

Class definitions on intrinsic clearance, rat liver microsomes: class A: < 100 mL/min/kg; class B: ≥ 100 mL/min/kg and < 600 mL/min/kg; class C: ≥ 600 mL/min/kg

>>> print(df.to_string())
                                   molecule  discrete_label
0         COc1ccc(-c2nc(CC(N)=O)sc2C)cc1.Cl         class B
1         Cc1ccc(=O)n(CCOc2cc(F)cc(Br)c2)n1         class C
2  Cc1noc(-c2ccc(-c3ccc(CC(=O)O)cc3)cc2)c1NC(=O)O[C@H](C)c1ccccc1Cl         class A
3  CN1CCC(NS(=O)(=O)C2CN(C(=O)c3cccc(Cl)c3)C2)CC1         class A
4            CN(CCN1CCCCC1)c1cncc(C(N)=O)n1         class A

query: Quick check: band for `CC(C)c1noc(CNC(=O)N2C[C@H]3C[C@@H](C2)c2cccc(=O)n2C3)n1`
result: class A

###

// bucketize intrinsic clearance, rat liver microsomes: low group: < 90 mL/min/kg; middle group: ≥ 90 mL/min/kg and < 400 mL/min/kg; high group: ≥ 400 mL/min/kg

Please review the following examples before continuing.
>>> print(df.to_string())
                               entry_smiles  discrete_label
0               O=C(NCCCn1ccnc1)N1CCC12CCC2       low group
1           CC(C)CCNC(=O)CSc1nc2ccccc2[nH]1      high group
2  CC(=O)NCC1CCN(C(=O)c2cncn2-c2ccc(F)cc2)CC1       low group
3    O=C(NC[C@H]1COCc2nc3ccccc3n21)c1ccncc1    middle group
4  CC#CC(=O)N1CC[C@@H](n2cc(-c3ccc(Oc4c(F)cccc4F)cc3)c3c(N)n[nH]c(=O)c32)C1      high group

query: Given `COc1ccc2ccccc2c1CNC(=O)c1cnc(C2CC2)nc1` , name the class its intrinsic clearance, rat liver microsomes places it in.
result: high group

query: Any idea which band `COc1cc2c(cc1OC)[C@@H]1Cc3ccc(OC)c(OC)c3CN1CC2` is in?
result: low group

query: Class? Entry: `O=C(O)c1cnc(/C=C/c2csc(-c3ccsc3)n2)s1`
result: low group

query: Please let me know in which category the item `CCNC(=O)c1noc(-c2cc(C(C)C)c(O)cc2O)c1-c1ccc(CN2CCOCC2)cc1` belongs.
result: middle group

query: Into which bin does this compound go? `COc1ncnc2c1CN(Cc1c[nH]nc1-c1ccc(F)cc1)CC2`
result: middle group

query: Input `Cc1cc(C)n(C(=O)CCCC(=O)n2nc(C)cc2C)n1` ; output its category
result: high group
